These measurements were taken from patent US20090291945A1.

# study system: cathepsin K (Homo sapiens, UniProt P43235)
# Construct: the active enzyme was obtained as the enzyme fraction by using detergent containing lysis buffer; made in house; host or cells: HEK293T (GenHunter Corporation), transient expression; detergent lysate used as enzyme fraction
# Sequence (P43235 115-329): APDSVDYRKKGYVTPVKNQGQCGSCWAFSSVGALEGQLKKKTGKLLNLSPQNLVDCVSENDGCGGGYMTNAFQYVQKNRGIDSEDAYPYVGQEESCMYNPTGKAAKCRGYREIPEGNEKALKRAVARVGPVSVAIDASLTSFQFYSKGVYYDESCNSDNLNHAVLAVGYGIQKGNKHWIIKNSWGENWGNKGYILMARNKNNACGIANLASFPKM
# test: Cathepsin K inhibitory activity (fluorescent substrate Z-Leu-Arg-MCA)
# Type: biochemical
# test context: enzyme expressed in HEK293T; 15 min preincubation, 30 min reaction at room temperature, pH 5.5; read-out: Activity Intensity (cathepsin K inhibitory activity, pIC50 class) (converted)
# Experimental: Cathepsin K inhibitory activities of the compounds synthesized according to the methods of the above examples were measured. […] To the enzyme solution A (38.4 μL) were added the test compound solutions B (1.6 μL) and mixed individually. […] The enzyme activity with using DMSO instead of the test compound solution B was taken as 100% and the inhibitory rates at each concentration of the test compound were calculated. […] The 50% inhibitory concentration against cathepsin K was calculated from this curve. […]
Entries and their IC50

As a guide, the following entries are already answered.
• CC[C@@H](CNc1ccc(OCC(=O)O)cc1OC)NC(=O)[C@H](CC(C)(C)F)N[C@@H](c1ccccc1)C(F)(F)F = ≤ 3.16 nM
• CC(C)C[C@H](N[C@@H](c1ccccc1)C(F)(F)F)C(=O)N[C@@H](CN)CNc1ccc(N2CCOCC2)cc1 = 3.16 to 31.6 nM

Report IC50 for `CC[C@@H](CNc1ccc(N2CCC(C(=O)O)CC2)cc1)NC(=O)[C@H](CC(C)C)N[C@@H](c1ccccc1)C(F)(F)F`
≤ 3.16 nM

Report IC50 for `CC[C@@H](CNc1ccc(OC)cc1OC)NC(=O)[C@H](CC(C)C)N[C@@H](c1ccc(=O)n(C)c1)C(F)(F)F`
3.16 to 31.6 nM

Report IC50 for `CC[C@@H](CNc1ccc(OC)cc1OC)NC(=O)[C@H](CC(C)(C)F)N[C@@H](c1ccc(-c2ccc(S(C)(=O)=O)cc2)cc1)C(F)(F)F`
≤ 3.16 nM

Report IC50 for COc1ccc(NC[C@H](C)NC(=O)C2(NC(c3ccccc3)C(F)(F)F)CCCCC2)c(OC)c1 (stereo partly drawn)
31.6 to 10000 nM

====

# test: Metabolic stability test using human liver microsome
# Assay type: in vitro ADME
# test context: NADPH, 37° C., 25 minutes versus 0 minute, LC/MS peak area
In plain terms, low Residual Rate at 25 minutes (%), meaning strictly below 80%, gives True, and everything else gives False.

Would you please look over these solved cases?
• CC[C@@H](CNc1ccc(N2CCOCC2)cc1)NC(=O)[C@H](CC(C)C)N[C@@H](c1ccc(F)cc1)C(F)(F)F = True
• CC[C@@H](CNc1ccc(N2CCC[C@@H](C(=O)O)C2)cc1)NC(=O)[C@H](CC(C)(C)F)N[C@@H](c1ccccc1)C(F)(F)F = False
• CC(C)(F)C[C@H](N[C@@H](c1ccccc1)C(F)(F)F)C(=O)N[C@@H](CCCC(=O)O)CNc1ccc(N2CCOCC2)cc1 = False
• CC[C@@H](CNc1ccc(N2CCO[C@@H](C(=O)O)C2)cc1)NC(=O)[C@H](CC(C)C)N[C@@H](c1ccccc1)C(F)(F)F = False
• CC[C@@H](CNc1ccc(OC(F)(F)C(=O)O)cc1OC)NC(=O)[C@H](CC(C)(C)F)N[C@@H](c1ccccc1)C(F)(F)F = True
• CC[C@@H](CNc1ccc(N2CCC[C@H](C(=O)O)C2)cc1)NC(=O)[C@H](CC(C)C)N[C@@H](c1ccccc1)C(F)(F)F = False

Input `CC[C@@H](CNc1ccc(-c2ccccc2)cc1)NC(=O)[C@H](CC(C)C)N[C@@H](c1ccc(OC)nc1)C(F)(F)F` ; condition: Residual Rate at 25 minutes (%) strictly below 80%. Does it hold?
True

Input `CN(C)C[C@@H](CNc1ccc(N2CCOCC2)cc1)NC(=O)[C@H](CC(C)(C)F)N[C@@H](c1ccccc1)C(F)(F)F` ; condition: Residual Rate at 25 minutes (%) strictly below 80%. Does it hold?
True

Input `CC[C@@H](CNc1ccc(N2CCC[C@@H](C(=O)O)C2)cc1)NC(=O)[C@H](CC(C)C)N[C@@H](c1ccccc1)C(F)(F)F` ; condition: Residual Rate at 25 minutes (%) strictly below 80%. Does it hold?
False
